B1: Pistol ribozyme (parent)
chain: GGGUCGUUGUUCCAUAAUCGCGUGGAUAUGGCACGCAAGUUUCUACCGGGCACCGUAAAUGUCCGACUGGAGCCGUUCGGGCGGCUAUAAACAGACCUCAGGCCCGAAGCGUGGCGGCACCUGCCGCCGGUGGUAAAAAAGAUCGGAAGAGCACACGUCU

- Variants of: B1
- TEST_DETAILS: aptazyme ON/OFF ratio, guanine; higher = stronger switching; co-transcriptional cleavage with and without guanine
REPORTED_METRIC: aptazyme ON/OFF ratio
Lab note: record just the number, no unit beside it.

Worked examples, 3 variants total:
MUTATION_ANNOTATION	READING
U7A G9A U10G C13A	1.29
U7A U8A U10G U11C C13A	1.17
U8C G9U U10A C12A C13G	1.19

Briefly, aptazyme ON/OFF ratio measured for U7G U8C G9U U11C C13U : 1.3
